assay: Stability and biodistribution of prodrugs in vivo (HPLC of plasma and tissues); design: species or system mice (CD-1 nude; BALB/C where indicated); settings: mouse, small intestine, 50 mg/kg, SMALL INTESTINE, 120 min, 50 mg/kg i.p. or i.v., CD-1 nude mice; read-out: stability: percentage of material observed as intact prodrug, small intestine
Measured remaining at 2 h, listed per entry.
Numeric answer only, unit % assumed.

Nc1nc(N)c(CCCNc2ccc(C(=O)N[C@@H](CCC(=O)O)C(=O)N[C@@H](Cc3cccc(C4CCCC4)c3)C(=O)O)cc2)c(=O)[nH]1 [Prodrug 14] | 100

// field: remaining at 2 h; key: CN(Cc1cnc2nc(N)nc(N)c2n1)c1ccc(C(=O)N[C@@H](CCC(=O)O)C(=O)N[C@@H](Cc2ccccc2)C(=O)O)cc1 [Prodrug 10, reference compound] ; value = 0

// field: remaining at 2 h; key: Cc1nc2ccc3ccc(CNc4ccc(C(=O)N[C@@H](CCC(=O)O)C(=O)N[C@@H](CCC(=O)O)C(=O)O)c(F)c4)cc3c2c(=O)[nH]1 [Prodrug 1] ; value = 68

// field: remaining at 2 h; key: Cc1nc2ccc3ccc(CNc4ccc(C(=O)N[C@@H](CCC(=O)O)C(=O)N[C@@H](Cc5cccc6ccccc56)C(=O)O)c(F)c4)cc3c2c(=O)[nH]1 [Prodrug 3] ; value = 1

// field: remaining at 2 h; key: CN(Cc1cnc2nc(N)nc(N)c2n1)c1ccc(C(=O)N[C@@H](CCC(=O)O)C(=O)N[C@@H](Cc2ccccc2C2CCCC2)C(=O)O)cc1 [Prodrug 8] ; value = 35

// field: remaining at 2 h; key: CN(Cc1cnc2nc(N)nc(N)c2n1)c1ccc(C(=O)N[C@@H](CCC(=O)O)C(=O)N[C@@H](Cc2cccc(C3CCCC3)c2)C(=O)O)cc1 [Prodrug 9] ; value = 93

----------
assay: Stability and biodistribution of prodrugs in vivo (HPLC of plasma and tissues); parameters: species or system mice (CD-1 nude; BALB/C where indicated); conditions: KIDNEY, 120 min, 50 mg/kg i.p. or i.v., CD-1 nude mice
endpoint: concentration of prodrug in kidney (nmol/g)
Numeric answer only, unit nmol/g assumed.

// field: concentration of prodrug in kidney; key: Cc1nc2ccc3ccc(CNc4ccc(C(=O)N[C@@H](CCC(=O)O)C(=O)N[C@@H](Cc5ccccc5C(=O)O)C(=O)O)c(F)c4)cc3c2c(=O)[nH]1 [Prodrug 4] ; value = 14.5

// field: concentration of prodrug in kidney; key: CN(Cc1cnc2nc(N)nc(N)c2n1)c1ccc(C(=O)N[C@@H](CCC(=O)O)C(=O)N[C@@H](CC(=O)O)C(=O)O)cc1 [Prodrug 6] ; value = 12.6

// field: concentration of prodrug in kidney; key: CN(Cc1cnc2nc(N)nc(N)c2n1)c1ccc(C(=O)N[C@@H](CCC(=O)O)C(=O)N[C@@H](Cc2ccccc2C(=O)O)C(=O)O)cc1 [Prodrug 7] ; value = 3.8

----------
system: 268gly; test: Enzyme kinetics of prodrugs with 268gly mutant of human CPA1 (coupled assay); assay type: biochemical; conditions: 268gly; 25° C., pH 7.4
endpoint: Km (µM)
Numeric answer only, unit µM assumed.

CN(Cc1cnc2nc(N)nc(N)c2n1)c1ccc(C(=O)N[C@@H](CCC(=O)O)C(=O)N[C@@H](Cc2ccccc2)C(=O)O)cc1 [Prodrug 10, reference compound] | 0.3
CN(Cc1cnc2nc(N)nc(N)c2n1)c1ccc(C(=O)N[C@@H](CCC(=O)O)C(=O)N[C@@H](Cc2cccc(C(C)(C)C)c2)C(=O)O)cc1 [Prodrug 12] | 2.1
CN(Cc1cnc2nc(N)nc(N)c2n1)c1ccc(C(=O)N[C@@H](CCC(=O)O)C(=O)N[C@@H](Cc2ccccc2C2CCCC2)C(=O)O)cc1 [Prodrug 8] | 15
CN(Cc1cnc2nc(N)nc(N)c2n1)c1ccc(C(=O)N[C@@H](CCC(=O)O)C(=O)N[C@@H](Cc2cccc(C3CCCC3)c2)C(=O)O)cc1 | 15
CN(Cc1cnc2nc(N)nc(N)c2n1)c1ccc(C(=O)N[C@@H](CCC(=O)O)C(=O)N[C@@H](Cc2ccc(O)c(C3CCCC3)c2)C(=O)O)cc1 [Prodrug 13] | 18

Please find the next compound below.
// field: Km; key: CN(Cc1cnc2nc(N)nc(N)c2n1)c1ccc(C(=O)N[C@@H](CCC(=O)O)C(=O)N[C@@H](Cc2cccc(C3CCC3)c2)C(=O)O)cc1 ; value = 1.8

----------
experiment: Stability and biodistribution of prodrugs in vivo (HPLC of plasma and tissues); set-up: species or system mice (CD-1 nude; BALB/C where indicated); conditions: SMALL INTESTINE, 30 min, 50 mg/kg i.p. or i.v., CD-1 nude mice
Measured concentration of prodrug in small intestine, listed per entry.
Numeric answer only, unit nmol/g assumed.

Consider the reported concentration of prodrug in small intestine for these molecules:
Cc1nc2ccc3ccc(CNc4ccc(C(=O)N[C@@H](CCC(=O)O)C(=O)N[C@@H](CCC(=O)O)C(=O)O)c(F)c4)cc3c2c(=O)[nH]1 [Prodrug 1] | 48.2
CN(Cc1cnc2nc(N)nc(N)c2n1)c1ccc(C(=O)N[C@@H](CCC(=O)O)C(=O)N[C@@H](Cc2cccc(C3CCCC3)c2)C(=O)O)cc1 [Prodrug 9] | 377.9
CN(Cc1cnc2nc(N)nc(N)c2n1)c1ccc(C(=O)N[C@@H](CCC(=O)O)C(=O)N[C@@H](Cc2ccccc2C(=O)O)C(=O)O)cc1 [Prodrug 7] | 127.4

// field: concentration of prodrug in small intestine; key: CN(Cc1cnc2nc(N)nc(N)c2n1)c1ccc(C(=O)N[C@@H](CCC(=O)O)C(=O)N[C@@H](Cc2ccc(O)c(C3CCCC3)c2)C(=O)O)cc1 [Prodrug 13] ; value = 373.7

// field: concentration of prodrug in small intestine; key: Cc1nc2ccc3ccc(CNc4ccc(C(=O)N[C@@H](CCC(=O)O)C(=O)N[C@@H](Cc5ccccc5I)C(=O)O)c(F)c4)cc3c2c(=O)[nH]1 [Prodrug 5] ; value = 32.1

// field: concentration of prodrug in small intestine; key: Nc1nc(N)c(CCCNc2ccc(C(=O)N[C@@H](CCC(=O)O)C(=O)N[C@@H](Cc3cccc(C4CCCC4)c3)C(=O)O)cc2)c(=O)[nH]1 [Prodrug 14] ; value = 218.3

// field: concentration of prodrug in small intestine; key: Cc1nc2ccc3ccc(CNc4ccc(C(=O)N[C@@H](CCC(=O)O)C(=O)N[C@@H](Cc5ccccc5C(=O)O)C(=O)O)c(F)c4)cc3c2c(=O)[nH]1 [Prodrug 4] ; value = 188.1

// field: concentration of prodrug in small intestine; key: CN(Cc1cnc2nc(N)nc(N)c2n1)c1ccc(C(=O)N[C@@H](CCC(=O)O)C(=O)N[C@@H](Cc2ccccc2)C(=O)O)cc1 [Prodrug 10, reference compound] ; value = 17.3

----------
assay: Stability and biodistribution of prodrugs in vivo (HPLC of plasma and tissues); parameters: species or system mice (CD-1 nude; BALB/C where indicated); details: LARGE INTESTINE, 30 min, 50 mg/kg i.p. or i.v., CD-1 nude mice
The label is True for concentration of prodrug in large intestine below 8 nmol/g and False for concentration of prodrug in large intestine equal to or exceeding 8 nmol/g.

Here are 3 compounds together with their reported answers.
Cc1nc2ccc3ccc(CNc4ccc5c(c4)CN([C@@H](CCC(=O)O)C(=O)N[C@@H](Cc4ccccc4)C(=O)O)C5=O)cc3c2c(=O)[nH]1 [Prodrug 2] | True
CN(Cc1cnc2nc(N)nc(N)c2n1)c1ccc(C(=O)N[C@@H](CCC(=O)O)C(=O)N[C@@H](CC(=O)O)C(=O)O)cc1 [Prodrug 6] | True
CN(Cc1cnc2nc(N)nc(N)c2n1)c1ccc(C(=O)N[C@@H](CCC(=O)O)C(=O)N[C@@H](Cc2ccccc2)C(=O)O)cc1 [Prodrug 10, reference compound] | False

For this compound, is concentration of prodrug in large intestine lower than 8 nmol/g? Cc1nc2ccc3ccc(CNc4ccc(C(=O)N[C@@H](CCC(=O)O)C(=O)N[C@@H](Cc5ccccc5I)C(=O)O)c(F)c4)cc3c2c(=O)[nH]1 [Prodrug 5]
False

For this compound, is concentration of prodrug in large intestine lower than 8 nmol/g? CN(Cc1cnc2nc(N)nc(N)c2n1)c1ccc(C(=O)N[C@@H](CCC(=O)O)C(=O)N[C@@H](Cc2cccc(C3CCC3)c2)C(=O)O)cc1 [Prodrug 11]
True

For this compound, is concentration of prodrug in large intestine lower than 8 nmol/g? CN(Cc1cnc2nc(N)nc(N)c2n1)c1ccc(C(=O)N[C@@H](CCC(=O)O)C(=O)N[C@@H](Cc2ccccc2C2CCCC2)C(=O)O)cc1 [Prodrug 8]
True

For this compound, is concentration of prodrug in large intestine lower than 8 nmol/g? Cc1nc2ccc3ccc(CNc4ccc(C(=O)N[C@@H](CCC(=O)O)C(=O)N[C@@H](CCC(=O)O)C(=O)O)c(F)c4)cc3c2c(=O)[nH]1 [Prodrug 1]
False

For this compound, is concentration of prodrug in large intestine lower than 8 nmol/g? Nc1nc(N)c(CCCNc2ccc(C(=O)N[C@@H](CCC(=O)O)C(=O)N[C@@H](Cc3cccc(C4CCCC4)c3)C(=O)O)cc2)c(=O)[nH]1 [Prodrug 14]
False

For this compound, is concentration of prodrug in large intestine lower than 8 nmol/g? Cc1nc2ccc3ccc(CNc4ccc(C(=O)N[C@@H](CCC(=O)O)C(=O)N[C@@H](Cc5ccccc5C(=O)O)C(=O)O)c(F)c4)cc3c2c(=O)[nH]1 [Prodrug 4]
False

For this compound, is concentration of prodrug in large intestine lower than 8 nmol/g? CN(Cc1cnc2nc(N)nc(N)c2n1)c1ccc(C(=O)N[C@@H](CCC(=O)O)C(=O)N[C@@H](Cc2ccccc2C(=O)O)C(=O)O)cc1 [Prodrug 7]
False

For this compound, is concentration of prodrug in large intestine lower than 8 nmol/g? CN(Cc1cnc2nc(N)nc(N)c2n1)c1ccc(C(=O)N[C@@H](CCC(=O)O)C(=O)N[C@@H](Cc2cccc(C3CCCC3)c2)C(=O)O)cc1 [Prodrug 9]
True
